- Measurement target: UniProt Q96FL8
- Sequence (Q96FL8 whole entry): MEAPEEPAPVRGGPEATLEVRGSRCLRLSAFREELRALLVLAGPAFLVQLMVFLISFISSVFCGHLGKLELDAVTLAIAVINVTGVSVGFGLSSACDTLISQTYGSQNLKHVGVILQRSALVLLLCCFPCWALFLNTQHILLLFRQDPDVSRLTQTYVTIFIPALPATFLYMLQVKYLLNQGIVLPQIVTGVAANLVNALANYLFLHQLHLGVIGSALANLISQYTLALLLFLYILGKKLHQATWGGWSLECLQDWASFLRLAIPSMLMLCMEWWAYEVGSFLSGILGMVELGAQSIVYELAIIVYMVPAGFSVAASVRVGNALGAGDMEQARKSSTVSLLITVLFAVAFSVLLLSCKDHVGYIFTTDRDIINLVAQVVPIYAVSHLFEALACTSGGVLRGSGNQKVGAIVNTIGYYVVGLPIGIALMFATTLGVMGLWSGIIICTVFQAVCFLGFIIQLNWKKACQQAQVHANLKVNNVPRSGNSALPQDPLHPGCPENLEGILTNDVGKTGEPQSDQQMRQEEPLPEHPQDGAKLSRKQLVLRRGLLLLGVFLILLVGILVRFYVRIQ
- Test details: Substrate activity at MATE1 (unknown origin) expressed in HEK293 cells assessed as Vmax (maximum transport velocity) by HPLC-MS/MS analysis
- Type: cell-based
Vmax for assorted molecules
Result type: Vmax (pmol/min)

INSERT INTO measurements (molecule, meas_value) VALUES
  ('CCN1CCCC1CNC(=O)c1cc(S(=O)(=O)CC)c(N)cc1OC (racemic) [AMISULPRIDE]', 238),
  ('C[N@+]1(CC2CC2)CC[C@]23c4c5ccc(O)c4O[C@H]2C(=O)CC[C@@]3(O)[C@H]1C5 [METHYLNALTREXONE]', 56),
  ('Nc1nc(=O)n([C@@H]2CS[C@H](CO)O2)cc1F', 4523),
  ('NCCc1ccc(O)c(O)c1', 10148),
  ('[H]/N=C(/N)N/C(=N/[H])NCCc1ccccc1', 8451),
  ('CCN1CCCC1CNC(=O)c1cc(S(N)(=O)=O)ccc1OC (configuration not stated) [SULPIRIDE]', 851),
  ('NC[C@H](O)c1ccc(O)c(O)c1 [NOREPINEPHRINE]', 18720),
  ('CNC[C@H](O)c1ccc(O)c(O)c1 [EPINEPHRINE]', 22773),
  ('Nc1ccn([C@H]2CC[C@@H](CO)O2)c(=O)n1', 10171),
  ('CC(=O)OC(C)C[N+](C)(C)C (configuration not stated)', 17843),
  ('NCCc1ccc(O)cc1', 5948),
  ('C#CCN[C@@H]1CCc2ccccc21', 194),
  ('CN(C)CCc1c[nH]c2ccc(C[C@H]3COC(=O)N3)cc12', 2992),
  ('Cc1ncc(C[n+]2csc(CCO)c2C)c(N)n1', 599),
  ('CN(C)C(=O)Oc1cccc([N+](C)(C)C)c1', 7255),
  ('CN(C)CCc1c[nH]c2ccc(CC3COC(=O)N3)cc12 (racemic)', 2992),
  ('c1c2c(cc3c1OCO3)-c1cc3ccc4c(c3c[n+]1CC2)OCO4', 2901),
  ('COCCn1c2c([n+](Cc3cnccn3)c1C)C(=O)c1ccccc1C2=O', 304),
  ('C[C@H]1N=C(N(C)C)N=C(N)N1', 6242),
  ('CNC[C@H](O)c1cccc(O)c1', 11611),
  ('CN(C)CCc1c[nH]c2ccc(C[C@@H]3COC(=O)N3)cc12', 2624),
  ('Cc1ncc(CO)c(CN)c1O', 5442);
